The measured values listed here are drawn from the supplement of paper PMC10567573.

B1: ANKRD17 (parent)
chain: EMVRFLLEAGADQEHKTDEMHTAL

- Variants of: B1
- runDescription: protein stability index of a GFP-peptide fusion (GPS, HEK-293T) (PSI 1-6); higher = more stable;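 further: lentivirally expressed fusions sorted by FACS into six bins by GFP to DsRed ratio, PSI derived from sequencing read proportions per bin multiplied by bin number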
- particulars: c terminus: a fixed tail appended
Everything with protein stability index lower than 3 is False; everything else, including exactly 3, is True.

Say whether EMVRFLLEAGADQEHKTDENHTAL [M20N] shows protein stability index of 3 or more.
True

And then EMVRFLLEAGADQVHKTDEMHTAL [E14V] , what is it?
False

Cool, now EMVRFLLEAGADQEHKTDEMCTAL [H21C]
True

Another variant to look at: YMVRFLLEAGADQEHKTDEMHTAL [E1Y]
False

Entry EYVRFLLEAGADQEHKTDEMHTAL [M2Y] please
False

Could you do the same for EMVRFLLEAGADQKHKTDEMHTAL [E14K] , please?
False

Another: EMVRFLLDAGADQEHKTDEMHTAL [E8D]
False

Now this one: EMVRFLLEAGADQYHKTDEMHTAL [E14Y]
False

Thanks! And EMVRFLLEAGADQEHKTDEMATAL [H21A] ?
True

Moving on to EMVRFLMEAGADQEHKTDEMHTAL [L7M]
True

Do the same for EMVRFLLEAGADQEPKTDEMHTAL [H15P] please
False

Then EMVRFLLEAGSDQEHKTDEMHTAL [A11S] ?
True

Similarly, EMVRFLSEAGADQEHKTDEMHTAL [L7S] ?
True

What about EMVRFLLEAGADQEHKTDEMHTQL [A23Q] ?
True

Same read-out for ELVRFLLEAGADQEHKTDEMHTAL [M2L] ?
False

Now this one: EMVRFLLEAGADQEHKTDEMHCAL [T22C]
False

Entry EMVRFLLEYGADQEHKTDEMHTAL [A9Y] please
False

And what about the variant EMVRFLLEAGADQEHKTDEMKTAL [H21K] ?
True

What would you report for EMVRFLLEAGHDQEHKTDEMHTAL [A11H] ?
True

Same thing, different variant: EMVRFLLEAGADQEHKTDEMMTAL [H21M]
True

Subsequent entry: EMVRFLLEAGADQEHKCDEMHTAL [T17C]
False

Entry EMVRFLLEAGADQEHKNDEMHTAL [T17N] please
False

Next variant: EMVRHLLEAGADQEHKTDEMHTAL [F5H]
True

Would you kindly repeat that for EMVRFLLEAGADQEHKTDEMHRAL [T22R] ?
False

Same read-out for EMVRFLLEAGADQFHKTDEMHTAL [E14F] ?
False

Moving on to the next variant: EMLRFLLEAGADQEHKTDEMHTAL [V3L]
False

Also need EMVRFLLEAGADQEHKFDEMHTAL [T17F] , thanks.
False

For TMVRFLLEAGADQEHKTDEMHTAL [E1T] then?
False

Further, for EMVRFLLEAGADGEHKTDEMHTAL [Q13G] ?
False

Same again, this time with EMVRFLLWAGADQEHKTDEMHTAL [E8W]
False

Repeat with EMPRFLLEAGADQEHKTDEMHTAL [V3P]
True

Here is the next variant: EMVRFLQEAGADQEHKTDEMHTAL [L7Q]
True

Same lookup for EMSRFLLEAGADQEHKTDEMHTAL [V3S] , please.
True

Then EMVRFLLEAGADQEHKTHEMHTAL [D18H] ?
False

And what about the variant EMVRFLLEAGAAQEHKTDEMHTAL [D12A] ?
False

What about RMVRFLLEAGADQEHKTDEMHTAL [E1R] ?
False

Try the variant EMVRFLLEAGADQWHKTDEMHTAL [E14W]
False

Do the same for EMVRFLLEAGADQEHKTDEMHTHL [A23H] please
False

Field entry: EMGRFLLEAGADQEHKTDEMHTAL [V3G]
True

Likewise for MMVRFLLEAGADQEHKTDEMHTAL [E1M] ?
False

Moving on to EMVRFLLEAGAKQEHKTDEMHTAL [D12K]
False

What do you get for EMVRFLLEAGADQPHKTDEMHTAL [E14P] ?
False

Please answer likewise for EMVRFLLEAGADQEHCTDEMHTAL [K16C]
False
